- assayed.system: cPAH (phenylalanine hydroxylase from Chromobacterium violaceum) (Chromobacterium violaceum, UniProt P30967, S203P)
- assay.summary: biochemical
experimental.endpoint: Kd
I'd appreciate it if you wrote the number followed by its unit.

input: Please indicate Kd recorded for `N[C@@H](Cc1ccccc1)C(=O)O`
output: 7 µM

* * *

- assayed.system: cPAH (phenylalanine hydroxylase from Chromobacterium violaceum) (Chromobacterium violaceum, UniProt P30967, F258A)
- assay.summary: biochemical
experimental.endpoint: Kd (µM)
Your answer is read as µM, so omit the unit and give the number.

input: Respond only with Kd recorded for `N[C@@H](Cc1ccccc1)C(=O)O`
output: 775

* * *

- assayed.system: cPAH (phenylalanine hydroxylase from Chromobacterium violaceum) (Chromobacterium violaceum, UniProt P30967, T254A)
- assay.summary: biochemical
experimental.endpoint: Kd

input: Give the value of Kd reported for the following: `C[C@H](O)[C@H](O)[C@H]1CNc2nc(N)[nH]c(=O)c2N1`
output: 43.6 µM

* * *

- assayed.system: cPAH (phenylalanine hydroxylase from Chromobacterium violaceum) (Chromobacterium violaceum, UniProt P30967, Y155A)
- assay.summary: biochemical
experimental.endpoint: Kd (µM)
Give the value, in units of µM, as a plain number.

input: Provide measured Kd value, entry: `N[C@@H](Cc1ccccc1)C(=O)O`
output: 559

* * *

- assayed.system: cPAH (phenylalanine hydroxylase from Chromobacterium violaceum) (Chromobacterium violaceum, UniProt P30967, F258A)
- assay.summary: biochemical
experimental.endpoint: Kd (µM)
A number alone suffices; assume µM.

input: Answer with the recorded Kd for the compound listed here: `C[C@H](O)[C@H](O)[C@H]1CNc2nc(N)[nH]c(=O)c2N1`
output: 29.3

* * *

- assayed.system: cPAH (phenylalanine hydroxylase from Chromobacterium violaceum) (Chromobacterium violaceum, UniProt P30967, T254A)
- assay.summary: biochemical
experimental.endpoint: Kd (µM)
The reply should contain only the number, in µM.

input: Determine from records and report Kd for N[C@@H](Cc1ccccc1)C(=O)O [phenylalanine]
output: 376

* * *

- assayed.system: cPAH (phenylalanine hydroxylase from Chromobacterium violaceum) (Chromobacterium violaceum, UniProt P30967, S203P)
- assay.summary: biochemical
experimental.endpoint: pKd
Notebook: values listed as pKd are -log10 of the concentration (mol/L).

input: Could you please provide reported pKd for C[C@H](O)[C@H](O)[C@H]1CNc2nc(N)[nH]c(=O)c2N1 [BH4] ? Thanks!
output: 4.45
